Where do the numbers come from? From the antibiotic and cytotoxicity screens of Wong et al. (2023).

# Test system: HepG2
# Assay Summary: cytotoxicity call (relative viability < 0.9)
# Experimental Context: 10 µM
Out of some 39,000 compounds screened, about 3,300 (8.5%) were called active. This excerpt belongs to a sample that is enriched for actives.
In this exercise, the only acceptable responses are t = active, f = inactive

O=C(Nc1cc(C(F)(F)F)cc(C(F)(F)F)c1)Nc1c(Br)cc(Br)cc1-c1nn[nH]n1 = f
CC1CC(OC(=O)C(O)c2ccccc2)CC(C)(C)C1 (configuration not stated) = f

Check the results log: what was the call for CS(=O)(=O)O.CSc1ccc2c(c1)C(N1CCN(C)CC1)Cc1ccccc1S2 (configuration not stated) ? t

Check the results log: what was the call for "CN(C)c1ccsc1C(=O)NN" ? f

Check the results log: what was the call for "COc1cccc(NC(=O)N(C)C[C@@H]2OCc3ccccc3-c3c(n(C)c4ccccc34)C(=O)N([C@@H](C)CO)C[C@@H]2C)c1" ? f

Check the results log: what was the call for "COc1ccc2c3c([nH]c2c1)[C@@H](CO)N(C[C@]13CCN(CCc2ccccc2)CC1)C(=O)CN1CCOCC1" ? f

Check the results log: what was the call for "COc1ccc2c3c([nH]c2c1)[C@H](CO)N(Cc1ccccc1)C[C@]13CCN(CC1)C(=O)Nc1cccc(c1)F" ? f

Check the results log: what was the call for "C[C@H](CO)N1C[C@H](C)[C@H](CN(C)Cc2ccc(C(=O)Nc3ccccc3N)cc2)Oc2c(NC(=O)Nc3ccc(F)cc3)cccc2C1=O" ? f

Check the results log: what was the call for "C[C@@H]1CN([C@@H](C)CO)C(=O)c2cccc(NC(=O)Nc3ccccc3)c2O[C@H]1CN(C)Cc1ccc(C(=O)Nc2ccccc2N)cc1" ? f

Check the results log: what was the call for "C[C@@H]1CN([C@H](C)CO)C(=O)CCCn2nncc2CO[C@H]1CN(C)S(=O)(=O)c1ccccc1C#N" ? f

* * *

# Test system: HepG2
# Assay Summary: cytotoxicity call (relative viability < 0.9)
# Experimental Context: 10 µM
Hit rate of the full screen: of about 39,000 compounds, about 3,300 (8.5%) were called active. Only a selection was taken, and actives are over-represented in it overall.
In this exercise, the only acceptable responses are class 1 (active), class 0 (inactive)

Check the results log: what was the call for "O=C(OC[C@H]1O[C@@H](OC(=O)c2cc(O)c(O)c(O)c2)[C@H](O)[C@@H](OC(=O)c2cc(O)c(O)c(O)c2)[C@@H]1O)c1cc(O)c(O)c(O)c1" ? class 1

Check the results log: what was the call for "C=C[C@H]1[C@H](O[C@H]2O[C@@H](CO)[C@@H](O)[C@@H](O)[C@@H]2O)OC=C(C(=O)OC)[C@H]1CCOC(=O)c1cc(O)c(O)c(O)c1" ? class 0

Check the results log: what was the call for O=C(OC1Cc2c(O)cc(O)cc2OC1c1cc(O)c(O)c(O)c1)c1cc(O)c(O)c(O)c1 (stereo unspecified) ? class 0

Check the results log: what was the call for "O=C(OC[C@H]1O[C@@H](OC(=O)c2cc(O)c(O)c(O)c2)[C@H](O)[C@@H](O)[C@@H]1O)c1cc(O)c(O)c(O)c1" ? class 0

Check the results log: what was the call for "O=C(Oc1cc(O)cc2c1C[C@@H](OC(=O)c1cc(O)c(O)c(O)c1)[C@@H](c1cc(O)c(O)c(O)c1)O2)c1cc(O)c(O)c(O)c1" ? class 0

Check the results log: what was the call for "O=C(OC[C@H]1O[C@@H](OC(=O)c2cc(O)c(O)c(O)c2)[C@H](OC(=O)c2cc(O)c(O)c(O)c2)[C@@H](OC(=O)c2cc(O)c(O)c(O)c2)[C@@H]1OC(=O)c1cc(O)c(O)c(O)c1)c1cc(O)c(O)c(O)c1" ? class 1

* * *

# System: HepG2
# Assay Summary: cytotoxicity call (relative viability < 0.9)
# Experimental Context: 10 µM
About 3,300 (8.5%) of roughly 39,000 compounds were called active. Many of the other results were omitted from the sample, so actives are more common in it than they were.
In this exercise, the only acceptable responses are active, inactive

Here are 3 compounds together with their reported answers.
C[C@@H]1CCCCO[C@H](CN(C)C(=O)NC2CCCCC2)[C@H](C)CN([C@@H](C)CO)C(=O)c2cc(NS(=O)(=O)c3ccc(Cl)cc3)ccc2O1 = inactive
O=C(COc1ccccc1)N1CCNC1=O = inactive
C[C@@H]1CCCCO[C@@H](CN(C)C(=O)NC2CCCCC2)[C@@H](C)CN([C@@H](C)CO)C(=O)c2cc(NS(=O)(=O)c3ccc(Cl)cc3)ccc2O1 = inactive

Check the results log: what was the call for "C=CC[C@@H](CC(=O)N(CCO)Cc1ccccc1)C(=O)N[C@H](COC(=O)[C@@H](CC=C)Cc1ccc(F)cc1)C(C)(C)C" ? inactive

Check the results log: what was the call for "C[C@@H]1CCCCO[C@H](CN(C)C(=O)NC2CCCCC2)[C@H](C)CN([C@H](C)CO)C(=O)c2cc(NS(=O)(=O)c3ccc(Cl)cc3)ccc2O1" ? active

Check the results log: what was the call for "C[C@H]1CCCCO[C@H](CN(C)C(=O)NC2CCCCC2)[C@@H](C)CN([C@@H](C)CO)C(=O)c2cc(NS(=O)(=O)c3ccc(Cl)cc3)ccc2O1" ? inactive

Check the results log: what was the call for "C[C@@H]1CN([C@H](C)CO)C(=O)c2cc(NS(=O)(=O)c3ccc(Cl)cc3)ccc2O[C@@H](C)CCCCO[C@@H]1CN(C)C(=O)NC1CCCCC1" ? active

* * *

# Test system: HepG2
# Assay Summary: cytotoxicity call (relative viability < 0.9)
# Experimental Context: 10 µM
About 3,300 (8.5%) of roughly 39,000 compounds were called active. The sample as a whole holds a higher share of actives than the screen did.
In this exercise, the only acceptable responses are active, inactive

Here are 5 compounds together with their reported answers.
C[C@@H]1CN([C@H](C)CO)C(=O)c2cc(NC(=O)CCC(F)(F)F)ccc2O[C@@H](C)CCCCO[C@@H]1CN(C)CC1CCCCC1 = inactive
O=C(C[C@@H]1C[C@@H]2c3cc(NC(=O)NC4CCCC4)ccc3O[C@@H]2[C@@H](CO)O1)NCc1ccc(-c2ccccc2)cc1 = inactive
O=C(C[C@@H]1C[C@H]2c3cc(NC(=O)Nc4ccc(C(F)(F)F)cc4)ccc3O[C@H]2[C@@H](CO)O1)NCCc1ccccc1 = inactive
C[C@H](CO)N1C[C@H](C)[C@H](CN(C)S(C)(=O)=O)Oc2ccc(NC(=O)CCC(F)(F)F)cc2CC1=O = inactive
O=C(C[C@@H]1C[C@H]2c3cc(NC(=O)NC4CCCC4)ccc3O[C@H]2[C@@H](CO)O1)NCc1ccc(-c2ccccc2)cc1 = inactive

Check the results log: what was the call for "COc1ccccc1CNC(=O)C[C@@H]1C[C@H]2c3cc(NC(=O)Nc4ccc(C(F)(F)F)cc4)ccc3O[C@H]2[C@@H](CO)O1" ? active

Check the results log: what was the call for "Cc1noc(C)c1S(=O)(=O)Nc1cccc2c1O[C@H](CN(C)C(=O)NC1CCCCC1)[C@H](C)CN([C@@H](C)CO)C2=O" ? inactive

* * *

# Test system: HepG2
# Assay Summary: cytotoxicity call (relative viability < 0.9)
# Experimental Context: 10 µM
Hit rate of the full screen: of about 39,000 compounds, about 3,300 (8.5%) were called active. The entries come from a sample that favours actives as a whole.
In this exercise, the only acceptable responses are 1 (yes) = active, 0 (no) = inactive

Here are 6 compounds together with their reported answers.
C[C@H](CO)N1C[C@H](C)[C@H](CN(C)C(=O)c2cccc(F)c2)Oc2cc(C#CC3CC3)ccc2S1(=O)=O = 0 (no)
COCC(=O)Nc1ccc2c(c1)C(=O)N(C)C[C@@H](OC)[C@H](C)CN(Cc1ccccc1F)[C@H](C)CO2 = 0 (no)
Cc1noc(C)c1S(=O)(=O)Nc1cccc2c1O[C@H](CN(C)Cc1ccc(-c3ccccc3)cc1)[C@H](C)CN([C@@H](C)CO)C2=O = 0 (no)
Cc1noc(C)c1NC(=O)N(C)C[C@@H]1OCCCC[C@H](C)Oc2ccc(NC(=O)Nc3ccc4c(c3)OCO4)cc2C(=O)N([C@H](C)CO)C[C@@H]1C = 0 (no)
C[C@@H]1CN([C@H](C)CO)C(=O)c2cccc(NC(=O)Nc3ccc4c(c3)OCO4)c2O[C@H]1CN(C)Cc1ccc(C(F)(F)F)cc1 = 1 (yes)
C[C@@H]1CN([C@@H](C)CO)C(=O)Cc2cc(NC(=O)Nc3ccc(C(F)(F)F)cc3)ccc2O[C@@H]1CN(C)Cc1ccc(C(=O)O)cc1 = 0 (no)

Here is the next item to consider.
Check the results log: what was the call for "C[C@@H]1CN([C@@H](C)CO)C(=O)c2cccc(NC(=O)Nc3ccc(C(F)(F)F)cc3)c2O[C@H]1CN(C)Cc1ccc2c(c1)OCO2" ? 0 (no)
